# Target System: αvβ6 (Homo sapiens, UniProt P06756+P18564)
# Sequence (P06756 31-992 limits assumed): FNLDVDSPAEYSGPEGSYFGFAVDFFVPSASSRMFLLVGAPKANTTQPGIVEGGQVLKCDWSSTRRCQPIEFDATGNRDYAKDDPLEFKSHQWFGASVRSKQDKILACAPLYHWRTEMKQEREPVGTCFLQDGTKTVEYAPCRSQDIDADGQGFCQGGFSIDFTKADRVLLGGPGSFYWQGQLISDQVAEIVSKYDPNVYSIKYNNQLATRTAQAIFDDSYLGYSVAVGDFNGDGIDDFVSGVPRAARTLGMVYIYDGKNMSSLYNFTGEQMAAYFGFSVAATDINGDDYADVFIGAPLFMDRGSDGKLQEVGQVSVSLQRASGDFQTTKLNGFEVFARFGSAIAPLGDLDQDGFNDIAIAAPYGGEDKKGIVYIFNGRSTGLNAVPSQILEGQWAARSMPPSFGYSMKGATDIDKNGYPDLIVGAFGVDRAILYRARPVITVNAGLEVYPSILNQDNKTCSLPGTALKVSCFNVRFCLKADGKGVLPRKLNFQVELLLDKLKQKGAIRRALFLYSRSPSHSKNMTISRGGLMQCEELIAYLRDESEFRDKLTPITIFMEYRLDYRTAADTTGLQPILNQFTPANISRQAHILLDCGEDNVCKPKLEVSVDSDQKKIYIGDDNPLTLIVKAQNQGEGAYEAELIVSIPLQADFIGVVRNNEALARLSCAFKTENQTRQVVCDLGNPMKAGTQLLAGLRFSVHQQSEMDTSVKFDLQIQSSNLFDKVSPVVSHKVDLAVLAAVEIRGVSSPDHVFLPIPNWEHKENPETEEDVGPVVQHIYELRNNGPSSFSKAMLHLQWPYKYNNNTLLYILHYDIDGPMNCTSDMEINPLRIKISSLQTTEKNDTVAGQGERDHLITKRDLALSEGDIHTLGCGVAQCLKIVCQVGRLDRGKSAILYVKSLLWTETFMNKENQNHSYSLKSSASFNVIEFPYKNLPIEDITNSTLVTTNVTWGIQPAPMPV
# Sequence (P18564 22-707 limits assumed): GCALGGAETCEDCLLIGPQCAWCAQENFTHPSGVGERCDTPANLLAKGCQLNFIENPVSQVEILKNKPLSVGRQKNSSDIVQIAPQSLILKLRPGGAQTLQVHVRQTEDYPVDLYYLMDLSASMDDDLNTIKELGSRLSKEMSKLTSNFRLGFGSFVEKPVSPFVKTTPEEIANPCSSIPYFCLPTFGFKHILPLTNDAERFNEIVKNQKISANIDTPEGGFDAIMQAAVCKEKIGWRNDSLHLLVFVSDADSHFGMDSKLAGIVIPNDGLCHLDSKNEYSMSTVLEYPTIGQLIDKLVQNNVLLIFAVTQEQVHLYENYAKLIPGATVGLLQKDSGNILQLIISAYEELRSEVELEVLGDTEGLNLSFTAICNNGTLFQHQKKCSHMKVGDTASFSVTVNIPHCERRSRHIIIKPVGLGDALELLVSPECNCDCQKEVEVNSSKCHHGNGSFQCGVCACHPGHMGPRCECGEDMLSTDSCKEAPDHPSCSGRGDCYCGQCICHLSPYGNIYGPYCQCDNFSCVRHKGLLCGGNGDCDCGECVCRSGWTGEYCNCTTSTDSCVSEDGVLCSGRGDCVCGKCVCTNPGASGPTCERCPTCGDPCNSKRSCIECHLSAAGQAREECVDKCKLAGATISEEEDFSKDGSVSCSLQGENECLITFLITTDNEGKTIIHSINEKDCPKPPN
# Run Description: Solid Phase Integrin αvβ6 Assay
Documented IC50 across a set of molecules
Parameter: IC50

>  <Molecule>
CC1(C)CN(c2cccc([C@H](CO[C@@H]3CCCN(CCCc4ccc5c(n4)NCCC5)C3)CC(=O)O)c2)CCO1

>  <Parameter>
IC50

>  <Reading>
0.1 to 1 µM

$$$$
>  <Molecule>
O=C(O)C[C@H](CO[C@@H]1CCCN(Cc2ccc3c(n2)NCCC3)C1)c1ccccc1

>  <Parameter>
IC50

>  <Reading>
> 1 µM

$$$$
>  <Molecule>
O=C(N[C@@H](CNC(=O)[C@@H]1CCCN(CCCc2ccc3c(n2)NCCC3)C1)C(=O)O)c1ccc(Cl)cc1

>  <Parameter>
IC50

>  <Reading>
< 0.1 µM

$$$$
>  <Molecule>
O=C(CC[C@H](C(=O)O)c1ccccc1)N[C@H]1CCN(CCCCc2ccc3c(n2)NCCC3)C1 [Compound 424]

>  <Parameter>
IC50

>  <Reading>
> 1 µM

$$$$

----------
The following molecules are shown together with reported pIC50 values.
# Target System: αvβ6 (Homo sapiens, UniProt P06756+P18564)
# Run Description: Solid Phase Integrin αvβ6 Assay
pIC50: −log10 of the molar value. Counter-ions that a name gives are not always drawn.

>  <Molecule>
Cc1cc(C)n(-c2cccc([C@H](CC(=O)O)NC(=O)[C@@H]3CCCN(CCCc4ccc5c(n4)NCCC5)C3)c2)n1 [Compound 225, hydrochloride]

>  <pIC50>
> 7.00

$$$$
>  <Molecule>
O=C(O)C[C@H](NC(=O)[C@H]1CCCN(C(=O)CCc2ccc3c(n2)NCCC3)C1)c1ccccc1 [Compound 286, hydrochloride]

>  <pIC50>
< 6.00

$$$$
>  <Molecule>
O=C(O)[C@H](CO[C@@H]1CCCN(CCCc2ccc3c(n2)NCCC3)C1)Nc1ncnc2ccccc12

>  <pIC50>
> 7.00

$$$$
>  <Molecule>
CC1(C)CN(c2cccc([C@H](CO[C@@H]3CCCN(CCCc4ccc5c(n4)NCCC5)C3)CC(=O)O)c2)CCC1(F)F

>  <pIC50>
> 7.00

$$$$
>  <Molecule>
CC1(C)CCN(c2cccc([C@H](CNC(=O)[C@@H]3CCCN(CCCc4ccc5c(n4)NCCC5)C3)C(=O)O)c2)CC1

>  <pIC50>
6.00 to 7.00

$$$$
>  <Molecule>
O=C(O)C[C@H](CO[C@@H]1CCCN(CCCc2ccc3c(n2)NCCC3)C1)c1ccc(-c2ccccc2)cc1

>  <pIC50>
> 7.00

$$$$

----------
Entries annotated with measured pIC50
# Target System: αvβ1 (Homo sapiens, UniProt P05556+P06756)
# Sequence (P05556 21-728 limits assumed, one chain of several): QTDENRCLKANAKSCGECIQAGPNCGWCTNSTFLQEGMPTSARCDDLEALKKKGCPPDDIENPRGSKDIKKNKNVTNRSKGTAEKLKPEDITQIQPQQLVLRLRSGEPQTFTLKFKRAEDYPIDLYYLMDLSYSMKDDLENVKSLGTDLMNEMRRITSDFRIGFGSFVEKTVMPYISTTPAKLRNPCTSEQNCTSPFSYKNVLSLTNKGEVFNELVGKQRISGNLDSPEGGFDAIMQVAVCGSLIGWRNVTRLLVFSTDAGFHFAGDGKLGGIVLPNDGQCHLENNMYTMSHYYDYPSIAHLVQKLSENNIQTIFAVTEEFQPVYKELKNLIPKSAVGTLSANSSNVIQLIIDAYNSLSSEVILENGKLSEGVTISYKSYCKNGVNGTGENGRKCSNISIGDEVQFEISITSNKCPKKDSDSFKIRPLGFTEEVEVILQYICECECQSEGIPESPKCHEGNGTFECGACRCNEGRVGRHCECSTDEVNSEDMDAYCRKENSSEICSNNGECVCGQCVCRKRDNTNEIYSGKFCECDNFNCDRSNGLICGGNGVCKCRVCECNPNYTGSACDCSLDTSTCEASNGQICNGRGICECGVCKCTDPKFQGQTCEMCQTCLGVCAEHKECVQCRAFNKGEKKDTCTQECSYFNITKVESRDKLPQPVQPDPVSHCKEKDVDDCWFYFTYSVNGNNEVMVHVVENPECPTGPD
# Run Description: Solid Phase Integrin αvβ1 Assay
pIC50: −log10 of the molar value. Structures can show the parent of a compound that is named as a salt.

>  <Molecule>
O=C(O)[C@@H](CCO[C@@H]1CCCN(Cc2ccc3c(n2)NCCC3)C1)Nc1ncnc2ccccc12

>  <pIC50>
< 6.00

$$$$
>  <Molecule>
O=C(O)C[C@H](NC(=O)[C@@H]1CCCN(CCCc2ccc3c(n2)NCCC3)C1)c1cccc(N2CCCCC2)c1 [Compound 232, hydrochloride]

>  <pIC50>
> 7.00

$$$$
>  <Molecule>
Cc1cc(C)n(-c2cccc([C@H](CNC(=O)[C@@H]3CCCN(CCCc4ccc5c(n4)NCCC5)C3)C(=O)O)c2)n1

>  <pIC50>
> 7.00

$$$$
>  <Molecule>
O=C(N[C@@H](CNC(=O)[C@@H]1CCCN(CCCc2ccc3c(n2)NCCC3)C1)C(=O)O)C1CCOCC1

>  <pIC50>
> 7.00

$$$$
>  <Molecule>
O=C(O)[C@H](CCO[C@@H]1CCCN(CCCCc2ccc3c(n2)NCCC3)C1)Nc1ncnc2ccccc12

>  <pIC50>
< 6.00

$$$$
>  <Molecule>
CC1(C)CN(c2cccc([C@@H](CO[C@@H]3CCCN(CCCc4ccc5c(n4)NCCC5)C3)CC(=O)O)c2)CCC1(F)F

>  <pIC50>
> 7.00

$$$$
>  <Molecule>
O=C(O)C[C@H](NC(=O)[C@@H]1CCCN(CCCc2ccc3c(n2)NCCC3)C1)c1cc(F)cc(C2CC2)c1

>  <pIC50>
> 7.00

$$$$
>  <Molecule>
O=C(N[C@@H](CNC(=O)[C@@H]1CCCN(CCCc2ccc3c(n2)NCCC3)C1)C(=O)O)c1c(F)cc(N2CCOC[C@@H]2C(F)(F)F)cc1F

>  <pIC50>
> 7.00

$$$$
>  <Molecule>
O=C(O)[C@H](CCO[C@@H]1CCCN(Cc2ccc3c(n2)NCCC3)C1)Nc1ncnc2ccccc12

>  <pIC50>
> 7.00

$$$$
>  <Molecule>
O=C(NC[C@H](NC(=O)[C@@H]1CC2CCC1CC2)C(=O)O)[C@@H]1CCCN(CCCc2ccc3c(n2)NCCC3)C1

>  <pIC50>
> 7.00

$$$$
>  <Molecule>
O=C(O)C[C@H](CO[C@@H]1CCCN(CCCc2ccc3c(n2)NCCC3)C1)c1cccc([C@@H]2CCOC2)c1

>  <pIC50>
> 7.00

$$$$
>  <Molecule>
O=C(NC[C@@H](C(=O)O)c1cccc2ccccc12)[C@@H]1CCCN(CCCc2ccc3c(n2)NCCC3)C1

>  <pIC50>
> 7.00

$$$$
>  <Molecule>
O=C(CC[C@@H](NC(=O)[C@H]1CCCN1S(=O)(=O)c1ccccc1)C(=O)O)N[C@H]1CCN(C(=O)CCCc2ccc3c(n2)NCCC3)C1

>  <pIC50>
6.00 to 7.00

$$$$
>  <Molecule>
O=C(O)CC(NC(=O)[C@@H]1CCCN(CCCc2ccc3c(n2)NCCC3)C1)c1cc(Cl)cc(C(F)(F)F)c1 (some centres unmarked) [Compound 222, hydrochloride]

>  <pIC50>
> 7.00

$$$$
>  <Molecule>
O=C(O)C[C@H](NC(=O)[C@@H]1CCCN(CCCc2ccc3c(n2)NCCC3)C1)c1cccc(N2CC3CCC2CO3)c1 (single isomer, unassigned) [Compound 241-A]

>  <pIC50>
> 7.00

$$$$
>  <Molecule>
O=C(O)CC(NC(=O)[C@@H]1CCCN(CCCc2ccc3c(n2)NCCC3)C1)c1ccc2c(c1)CCO2 (some centres unmarked) [Compound 213, hydrochloride]

>  <pIC50>
> 7.00

$$$$
>  <Molecule>
O=C(O)C[C@H](NC(=O)[C@@H]1CCCN(CCCc2ccc3c(n2)NCCC3)C1)c1cccc([C@@H]2CCOC2)c1

>  <pIC50>
> 7.00

$$$$
>  <Molecule>
O=C(CC[C@@H](NC(=O)C12CCC(CC1)CC2)C(=O)O)N[C@@H]1CCN(CCCCc2ccc3c(n2)NCCC3)C1

>  <pIC50>
< 6.00

$$$$
>  <Molecule>
O=C(NC[C@H](C(=O)O)c1ccc(F)c(-c2ccccc2)c1)[C@@H]1CCCN(CCCc2ccc3c(n2)NCCC3)C1

>  <pIC50>
> 7.00

$$$$
>  <Molecule>
O=C(NC[C@@H](C(=O)O)c1cccc2cnn([C@@H]3CCOC3)c12)[C@@H]1CCCN(CCCc2ccc3c(n2)NCCC3)C1

>  <pIC50>
6.00 to 7.00

$$$$
>  <Molecule>
O=C(O)C[C@@H](CO[C@@H]1CCCN(CCCc2ccc3c(n2)NCCC3)C1)c1ccccc1-c1ccccc1

>  <pIC50>
< 6.00

$$$$
>  <Molecule>
C[C@@H]1CN(c2cccc([C@H](CNC(=O)[C@@H]3CCCN(CCCc4ccc5c(n4)NCCC5)C3)C(=O)O)c2)C[C@@H](C)O1

>  <pIC50>
> 7.00

$$$$
>  <Molecule>
CC(C)(C)OC(=O)N[C@@H](CNC(=O)[C@@H]1CCCN(CCCc2ccc3c(n2)NCCC3)C1)C(=O)O

>  <pIC50>
> 7.00

$$$$
>  <Molecule>
O=C(N[C@@H](CNC(=O)[C@@H]1CCCN(CCCc2ccc3c(n2)NCCC3)C1)C(=O)O)c1cc(Cl)ccc1Cl

>  <pIC50>
> 7.00

$$$$
>  <Molecule>
O=C(O)C[C@H](C(=O)N[C@@H]1CCCN(CCCc2ccc3c(n2)NCCC3)C1)c1ccccc1

>  <pIC50>
< 6.00

$$$$
>  <Molecule>
O=C(O)C[C@@H](O[C@@H]1CCCN(CCCCc2ccc3c(n2)NCCC3)C1)c1ccccc1

>  <pIC50>
< 6.00

$$$$
